biological target: Human KDR (residues 790-1356) (Homo sapiens (Human), UniProt P35968); experiment: Human KDR kinase assay, HTRF KinEase (Example B-2); format: biochemical; settings: protocol of Example B-2 (other compounds)
Sequence (P35968 790-1356): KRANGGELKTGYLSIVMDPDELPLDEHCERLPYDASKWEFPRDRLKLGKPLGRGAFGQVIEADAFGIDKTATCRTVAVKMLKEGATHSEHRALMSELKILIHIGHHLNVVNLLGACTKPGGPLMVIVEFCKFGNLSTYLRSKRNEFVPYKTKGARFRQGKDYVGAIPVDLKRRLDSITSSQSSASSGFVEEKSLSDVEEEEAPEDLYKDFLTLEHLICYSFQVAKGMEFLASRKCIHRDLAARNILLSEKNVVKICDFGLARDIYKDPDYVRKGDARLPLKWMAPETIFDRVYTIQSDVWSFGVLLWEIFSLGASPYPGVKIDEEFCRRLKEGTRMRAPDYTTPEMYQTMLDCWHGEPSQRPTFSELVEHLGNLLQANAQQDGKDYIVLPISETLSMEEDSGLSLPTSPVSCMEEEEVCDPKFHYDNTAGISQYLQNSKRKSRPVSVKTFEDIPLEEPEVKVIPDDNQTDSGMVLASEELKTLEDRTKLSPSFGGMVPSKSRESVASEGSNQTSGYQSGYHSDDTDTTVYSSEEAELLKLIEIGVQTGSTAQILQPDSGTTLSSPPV
Below, each entry is listed alongside its reported IC50.

Observe how each entry below is paired with its result.
>>> result("COc1cnc2c(Oc3ccc(NC(=O)c4cn(C(C)C)c(C)c(-c5ccc(F)cc5)c4=O)cc3)ccnc2c1")
"> 0.3 µM"
>>> result("COc1cc2nccc(Oc3ccc(NC(=O)c4cn(C)c(C)c(-c5ccc(F)cc5)c4=O)c(F)c3F)c2nc1OC")
"> 0.3 µM"

Now, please, on to the next compound.
According to the records, this compound COc1cnc2c(Oc3ccc(NC(=O)c4c(C)nc(C)n(-c5ccc(F)cc5)c4=O)cc3)ccnc2c1 displays IC50 of < 0.1 µM

###

// reported IC50 per item
target: KDR (phospho-KDR, VEGF165-stimulated HUVEC cells) (Homo sapiens (Human), UniProt P35968); test: KDR autophosphorylation ELISA in HUVEC cells (Example G); type: cell-based; conditions: cellular activity; KDR autophosphorylation ELISA in HUVEC cells
Sequence (P35968 20-1356): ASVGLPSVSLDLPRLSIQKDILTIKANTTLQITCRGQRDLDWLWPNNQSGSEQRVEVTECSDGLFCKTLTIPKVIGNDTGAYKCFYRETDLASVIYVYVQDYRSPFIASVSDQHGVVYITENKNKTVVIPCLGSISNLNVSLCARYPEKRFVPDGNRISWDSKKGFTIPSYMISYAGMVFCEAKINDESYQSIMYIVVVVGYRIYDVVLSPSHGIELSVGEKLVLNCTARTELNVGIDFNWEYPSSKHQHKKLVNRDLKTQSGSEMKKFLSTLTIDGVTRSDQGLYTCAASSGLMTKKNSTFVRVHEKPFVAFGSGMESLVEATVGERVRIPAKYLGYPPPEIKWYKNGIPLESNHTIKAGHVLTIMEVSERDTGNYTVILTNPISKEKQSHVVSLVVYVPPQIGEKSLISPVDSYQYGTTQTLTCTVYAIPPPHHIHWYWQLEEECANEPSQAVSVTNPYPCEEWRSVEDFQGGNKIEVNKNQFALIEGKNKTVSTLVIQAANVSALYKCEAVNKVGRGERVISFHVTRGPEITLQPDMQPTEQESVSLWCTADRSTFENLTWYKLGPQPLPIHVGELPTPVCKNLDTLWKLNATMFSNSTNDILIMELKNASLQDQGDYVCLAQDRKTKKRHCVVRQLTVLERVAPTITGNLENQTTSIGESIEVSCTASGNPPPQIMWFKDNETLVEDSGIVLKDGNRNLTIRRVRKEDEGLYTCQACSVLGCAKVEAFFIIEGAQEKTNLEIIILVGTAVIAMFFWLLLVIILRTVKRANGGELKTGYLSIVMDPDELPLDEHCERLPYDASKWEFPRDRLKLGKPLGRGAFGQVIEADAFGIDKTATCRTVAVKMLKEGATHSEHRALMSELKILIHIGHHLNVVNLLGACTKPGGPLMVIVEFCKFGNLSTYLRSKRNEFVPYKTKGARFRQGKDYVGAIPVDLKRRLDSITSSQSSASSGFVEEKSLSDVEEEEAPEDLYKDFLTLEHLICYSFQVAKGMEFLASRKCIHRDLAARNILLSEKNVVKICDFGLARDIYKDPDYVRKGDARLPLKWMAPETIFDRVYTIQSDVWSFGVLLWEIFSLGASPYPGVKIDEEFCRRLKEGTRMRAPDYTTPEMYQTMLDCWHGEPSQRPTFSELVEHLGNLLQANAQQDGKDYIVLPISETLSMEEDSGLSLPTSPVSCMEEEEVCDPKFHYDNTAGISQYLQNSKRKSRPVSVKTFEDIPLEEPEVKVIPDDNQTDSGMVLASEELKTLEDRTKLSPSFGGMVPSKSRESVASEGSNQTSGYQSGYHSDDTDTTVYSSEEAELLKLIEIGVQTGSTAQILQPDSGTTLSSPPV
Structures can show the parent of a compound that is named as a salt.

>>> result("COc1cnc2c(Oc3ccc(NC(=O)c4cn(C(C)(C)C)c(C)c(-c5ccc(F)cc5)c4=O)cc3F)ccnc2c1")
"> 0.3 µM"
>>> result("COc1cc2nccc(Oc3ccc(NC(=O)c4cn(O)cc(-c5ccc(F)cc5)c4=O)cc3F)c2nc1OC")
"< 0.1 µM"
>>> result("COc1cc2nccc(Oc3ccc(NC(=O)c4c(Cl)n(C)c(C)c(-c5ccc(F)cc5)c4=O)cc3F)c2nc1OC")
"> 0.3 µM"

Item: Cc1ncc(C(=O)Nc2ccc(Oc3ccnc4cc(-c5cnn(C(F)F)c5)cnc34)c(F)c2)c(O)c1-c1ccc(F)cc1 [Compound 610, hydrochloride] | IC50: < 0.1 µM

Looking up C=C(C)c1cnc2c(Oc3ccc(NC(=O)c4cnc(C)c(-c5ccc(F)cc5)c4O)cc3F)ccnc2c1 , I found its IC50 recorded as < 0.1 µM

###

biological target: Human KDR (residues 790-1356) (Homo sapiens (Human), UniProt P35968); experiment: Human KDR kinase assay, HTRF KinEase (Example B-2); assay type: biochemical; conditions: protocol of Example B-2 (other compounds)
# reported IC50; entries follow

>>> result("COc1cnc2c(Oc3ccc(NC(=O)c4n[nH]c(C)c(-c5ccc(F)cc5)c4=O)cc3F)ccnc2c1")
"< 100 nM"
>>> result("COc1cnc2c(Oc3ccc(NC(=O)c4cncc(-c5ccc(F)cc5)c4O)cc3F)ccnc2c1")
"< 100 nM"
>>> result("COc1ccc2nccc(Oc3ccc(NC(=O)c4n[nH]c(C)c(-c5ccc(F)cc5)c4=O)cc3F)c2n1")
"< 100 nM"
>>> result("COc1cnc2c(Oc3ccc(NC(=O)c4ncc(C)n(-c5ccc(F)cc5)c4=O)cc3)ccnc2c1")
"> 300 nM"

The reported value for COc1cc2nccc(Oc3ccc(NC(=O)c4c(C)nc(C)c(-c5ccc(F)cc5)c4O)cc3)c2nc1OC in terms of IC50 is < 100 nM

###

molecular target: KDR (phospho-KDR, VEGF165-stimulated HUVEC cells) (Homo sapiens (Human), UniProt P35968); test: KDR autophosphorylation ELISA in HUVEC cells (Example G); type: cell-based; settings: cellular activity; KDR autophosphorylation ELISA in HUVEC cells
pIC50: −log10 of the molar value.
PROPERTY_NAME: pIC50

// worked examples, pIC50 included
>>> result("Cc1cc2c(Oc3ccc(NC(=O)c4cnc(C)c(-c5ccc(F)cc5)c4O)cc3F)ccnc2cn1")
"> 7.00"
>>> result("COc1cc2nccc(Oc3ccc(NC(=O)c4c(C)ncc(-c5ccc(F)cc5C)c4O)cc3F)c2nc1OC")
"> 7.00"
>>> result("COc1cc2nccc(Oc3ccc(NC(=O)c4cn(C5CC5)cc(-c5ccc(F)cc5)c4=O)cc3F)c2nc1OC")
"6.52 to 7.00"

Lab note: measured pIC50 of COc1cnc2c(Oc3ccc(NC(=O)c4c(CO)nc(C)c(-c5ccc(F)cc5)c4O)cc3F)ccnc2c1 was > 7.00

Briefly, pIC50 measured for CCc1nc(C)c(-c2ccc(F)cc2)c(O)c1C(=O)Nc1ccc(Oc2ccnc3cc(OC)c(OC)nc23)c(F)c1 : > 7.00

# pIC50 of COc1cnc2c(Oc3ccc(NC(=O)c4c(C)nc(C)c(-c5ccc(F)c(OC)c5)c4O)cc3F)ccnc2c1 = > 7.00

Form field pIC50, entry COCCOc1cnc2c(Oc3ccc(NC(=O)c4c(C)nc(C)c(-c5ccc(F)cc5C)c4O)cc3)ccnc2c1 : > 7.00

The compound listed as COCc1c(-c2ccc(F)cc2)c(=O)c(C(=O)Nc2ccc(Oc3ccnc4cc(OC)c(OC)nc34)c(F)c2)cn1C shows pIC50 equal to < 6.52
